- System: NCI-H292 lung cancer cells
- Procedure Details: FDA drug screening, complete media vs cholesterol-free media without statin (TABLE 1)
- Type: cell-based, human
- Reported Conditions: NCI-H292 cells in cholesterol-free media without statin
Please go through the items and note down their Cholesterol-free.
Answer with a bare number; do not write a unit.

# input Tell me Cholesterol-free reported for CC[C@H](C)C(=O)O[C@H]1C[C@H](O)C=C2C=C[C@H](C)[C@H](CC[C@@H](O)C[C@@H](O)CC(=O)[O-])[C@H]21.[Na+] [Pravastatin (sodium)]
# output 1.713

# input Tell me Cholesterol-free reported for CCCCC(CC)COC(=O)C(C#N)=C(c1ccccc1)c1ccccc1 (stereo not drawn)
# output 1.541

# input Tell me Cholesterol-free reported for "Nc1ncnc2[nH]cnc12"
# output 1.858
